Target: T1, human serum albumin (HSA), full length (human, UniProt P02768 25-609)
T1 construct: mature; Immobilized on CM5 chip (SPR) or coated on plates (ELISA)
T1 sequence (P02768 25-609): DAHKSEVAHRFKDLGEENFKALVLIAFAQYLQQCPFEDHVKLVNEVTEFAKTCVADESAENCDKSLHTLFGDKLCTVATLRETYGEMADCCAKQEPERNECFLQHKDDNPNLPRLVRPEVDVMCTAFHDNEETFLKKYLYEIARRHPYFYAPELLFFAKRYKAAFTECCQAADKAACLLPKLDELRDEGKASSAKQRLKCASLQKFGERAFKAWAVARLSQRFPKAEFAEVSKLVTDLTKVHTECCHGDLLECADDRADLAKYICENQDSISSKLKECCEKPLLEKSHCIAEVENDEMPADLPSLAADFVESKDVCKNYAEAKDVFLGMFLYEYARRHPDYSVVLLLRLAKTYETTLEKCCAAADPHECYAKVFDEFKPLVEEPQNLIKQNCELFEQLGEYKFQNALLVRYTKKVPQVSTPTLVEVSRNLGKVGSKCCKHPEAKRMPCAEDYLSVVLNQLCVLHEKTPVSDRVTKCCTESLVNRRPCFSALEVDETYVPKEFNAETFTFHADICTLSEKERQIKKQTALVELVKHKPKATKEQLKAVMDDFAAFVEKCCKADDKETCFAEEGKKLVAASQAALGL
Test: direct binding ELISA, coated HSA, anti-His-HRP
Set-up: unit not given here
Description: Direct binding ELISA assays were conducted as follows. Full length human and murine serum albumin at 10ug/ml in PBS were coated on Nunc Maxisorp plates overnight at 4° C. Plates were blocked in casein/PBS buffer. […] Bound Adnectin was detected by anti-His antibody conjugated with HRP (horseradish peroxidase) diluted 1:1500 in casein/PBS. Plates were developed with TMB substrate and absorbance read at 450 nm. […]
Label rule, in plain words: HSA DB ELISA (OD450) Ymin obs of 40 and up is YES, under 40 is NO.

Worked examples, 8 binders total:
binder	group
ADX_6727_G10 (Y35S/K85A) (designed binder, Full His6-tagged entry) MGVSDVPRDLEVVAATPTSLLISWDAPAVTVRYYRITYGREVQKSSDLGPLYIYQEFTVPGSKSTATISGLKPGVDYTITVYAVTGSGESPASSAPISINYRTEIDKPSQHHHHHH	YES
ADX_6727_C07 (R30A/K85S) (designed binder, Full His6-tagged entry) MGVSDVPRDLEVVAATPTSLLISWDAPAVTVRYYRITYGAEVQKYSDLGPLYIYQEFTVPGSKSTATISGLKPGVDYTITVYAVTGSGESPASSSPISINYRTEIDKPSQHHHHHH	YES
ADX_6727_B04 (Y35S/K85S) (designed binder, Full His6-tagged entry) MGVSDVPRDLEVVAATPTSLLISWDAPAVTVRYYRITYGREVQKSSDLGPLYIYQEFTVPGSKSTATISGLKPGVDYTITVYAVTGSGESPASSSPISINYRTEIDKPSQHHHHHH	YES
ADX_6727_G01 (L41A) (designed binder, Full His6-tagged entry) MGVSDVPRDLEVVAATPTSLLISWDAPAVTVRYYRITYGREVQKYSDLGPAYIYQEFTVPGSKSTATISGLKPGVDYTITVYAVTGSGESPASSKPISINYRTEIDKPSQHHHHHH	NO
ADX_6727_F04 (Y44A/K85A) (designed binder, Full His6-tagged entry) MGVSDVPRDLEVVAATPTSLLISWDAPAVTVRYYRITYGREVQKYSDLGPLYIAQEFTVPGSKSTATISGLKPGVDYTITVYAVTGSGESPASSAPISINYRTEIDKPSQHHHHHH	NO
ADX_6727_D02 (R30N) (designed binder, Full His6-tagged entry) MGVSDVPRDLEVVAATPTSLLISWDAPAVTVRYYRITYGNEVQKYSDLGPLYIYQEFTVPGSKSTATISGLKPGVDYTITVYAVTGSGESPASSKPISINYRTEIDKPSQHHHHHH	NO
ADX_6727_B09 (L38T/K85T) (designed binder, Full His6-tagged entry) MGVSDVPRDLEVVAATPTSLLISWDAPAVTVRYYRITYGREVQKYSDTGPLYIYQEFTVPGSKSTATISGLKPGVDYTITVYAVTGSGESPASSTPISINYRTEIDKPSQHHHHHH	NO
ADX_6727_B01 (K85S) (designed binder, Full His6-tagged entry) MGVSDVPRDLEVVAATPTSLLISWDAPAVTVRYYRITYGREVQKYSDLGPLYIYQEFTVPGSKSTATISGLKPGVDYTITVYAVTGSGESPASSSPISINYRTEIDKPSQHHHHHH	YES

Enquiry: # bool: HSA DB ELISA (OD450) Ymin obs of ADX_6727_H02 (I43S) (designed binder, Full His6-tagged entry) MGVSDVPRDLEVVAATPTSLLISWDAPAVTVRYYRITYGREVQKYSDLGPLYSYQEFTVPGSKSTATISGLKPGVDYTITVYAVTGSGESPASSKPISINYRTEIDKPSQHHHHHH >= 40
Return: NO
